// data source = patent US11161864B2

A collection of compounds and their measured IC50
target: murine STING protein (amino acids 154-378) (Mus musculus (Mouse), UniProt Q3TBT3)
Sequence (Q3TBT3 154-378): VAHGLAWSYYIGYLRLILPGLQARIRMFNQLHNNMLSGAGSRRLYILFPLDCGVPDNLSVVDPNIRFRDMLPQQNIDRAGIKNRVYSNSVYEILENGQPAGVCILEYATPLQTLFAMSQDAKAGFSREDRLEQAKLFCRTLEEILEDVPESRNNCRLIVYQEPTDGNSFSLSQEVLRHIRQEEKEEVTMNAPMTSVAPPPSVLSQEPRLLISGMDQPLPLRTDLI
assay-comment: Murine STING [3H] 2′,3′-cGAMP scintillation proximity competition binding assay
experimental-parameters: read-out: Murine Binding IC50

Nc1nc2c(ncn2[C@@H]2O[C@@H]3COP(=O)(S)OCCn4c(nc5cncnc54)COP(=O)(O)O[C@@H]2[C@@H]3F)c(=O)[nH]1 (single isomer, unassigned) [Example 6A] = < 1000 nM
Nc1nc2c(ncn2[C@@H]2O[C@@H]3COP(=O)(S)OCCn4c(nc5cc(Cl)cnc54)COP(=O)(S)O[C@@H]2[C@@H]3F)c(=O)[nH]1 (single isomer, unassigned) [Example 14C] = < 1000 nM
Nc1nc2c(ncn2[C@@H]2O[C@@H]3COP(=O)(S)OCCn4c(nc5cncnc54)COP(=O)(S)O[C@@H]2C3(F)F)c(=O)[nH]1 (some centres unmarked) [Example 36D] = < 1000 nM
Nc1nc2c(ncn2[C@@H]2O[C@@H]3COP(=S)(S)OCCn4c(nc5cncnc54)COP(=O)(S)O[C@@H]2[C@@H]3F)c(=O)[nH]1 (some centres unmarked) [Example 39] = < 1000 nM

Kindly review the next compound as well.
-- ask Provide the documented IC50 with murine STING protein (amino acids 154-378) (Mus musculus (Mouse), UniProt Q3TBT3) as the system for Nc1nc2c(ncn2[C@@H]2O[C@@H]3COP(=O)(S)OCCn4nc(-c5ccncc5)nc4COP(=O)(S)O[C@@H]2[C@@H]3F)c(=O)[nH]1 (single isomer, unassigned) [Example 34D]
-- reply 1000 to 9990 nM

###

A collection of compounds and their measured IC50
target: wild-type (WT) truncated human STING protein, amino acids 155-379 (Homo sapiens (Human), UniProt Q86WV6, H232R)
Sequence (Q86WV6 155-379 H232R): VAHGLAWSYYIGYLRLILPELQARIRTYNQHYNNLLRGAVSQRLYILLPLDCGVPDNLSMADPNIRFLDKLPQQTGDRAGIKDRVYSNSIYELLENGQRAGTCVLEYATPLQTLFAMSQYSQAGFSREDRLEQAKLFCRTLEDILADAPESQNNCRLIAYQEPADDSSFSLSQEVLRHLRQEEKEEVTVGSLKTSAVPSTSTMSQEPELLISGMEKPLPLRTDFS
assay-comment: Human WT STING [3H] 2′,3′-cGAMP scintillation proximity competition binding assay
experimental-parameters: read-out: Human WT Binding IC50

C[C@H]1Cn2c(nc3cncnc32)COP(=O)(S)O[C@@H]2[C@H](F)[C@@H](COP(=O)(S)O1)O[C@H]2n1cnc2c(=O)[nH]c(N)nc21 (single isomer, unassigned) [Example 33C] = 10 to 100 µM
Nc1nc2c(ncn2[C@@H]2O[C@@H]3COP(=O)(S)OCCn4c(nc5c(N)ncnc54)COP(=O)(S)O[C@@H]2[C@@H]3F)c(=O)[nH]1 (single isomer, unassigned) [Example 7C] = < 1 µM
Nc1nc2c(ncn2[C@@H]2O[C@@H]3COP(=O)(O)OCCn4c(nc5cncnc54)COP(=O)(O)O[C@@H]2[C@@H]3O)c(=O)[nH]1 [Example 10] = 10 to 100 µM
Nc1nc2ncn([C@@H]3O[C@@H]4COP(=O)(S)OCCn5c(nc6cc(Cl)cnc65)COP(=O)(S)O[C@@H]3[C@@H]4F)c2c(=O)[nH]1 (single isomer, unassigned) [Example 13B] = 10 to 100 µM
Nc1nc2c(ncn2[C@@H]2O[C@@H]3COP(=O)(S)OCCn4c(nc5cncnc54)COP(=O)(S)O[C@@H]2[C@@H]3F)c(=O)[nH]1 (single isomer, unassigned) [Example 1C] = < 1 µM

-- ask I am curious: what IC50 value has been reported for Nc1nc2c(ncn2[C@@H]2O[C@@H]3COP(=O)(S)OCCn4c(nc5c(N)ncnc54)COP(=O)(S)O[C@@H]2[C@@H]3F)c(=O)[nH]1 (single isomer, unassigned) [Example 7D] ?
-- reply 1 to 9.99 µM

-- ask Further, for CO[C@H]1[C@H]2OP(=O)(S)OCc3nc4cncnc4n3CCOP(=O)(S)OC[C@H]1O[C@H]2n1cnc2c(=O)[nH]c(N)nc21 (single isomer, unassigned) [Example 27D] ?
-- reply 1 to 9.99 µM

-- ask Further, for CO[C@H]1[C@H]2OP(=O)(S)OCc3nc4cncnc4n3CCOP(=O)(S)OC[C@H]1O[C@H]2n1cnc2c(=O)[nH]c(N)nc21 (single isomer, unassigned) [Example 27B] ?
-- reply 10 to 100 µM

-- ask Further, for Nc1nc2c(ncn2[C@@H]2O[C@@H]3COP(=O)(S)OCCCn4c(nc5cncnc54)COP(=O)(S)O[C@@H]2[C@@H]3O)c(=O)[nH]1 (stereo partly shown) [Example 9] ?
-- reply 10 to 100 µM

-- ask Further, for Nc1nc2c(ncn2[C@@H]2O[C@@H]3COP(=O)(S)OCCn4c(nc5c(N)ncnc54)COP(=O)(S)O[C@@H]2[C@@H]3F)c(=O)[nH]1 (single isomer, unassigned) [Example 7B] ?
-- reply 10 to 100 µM

###

target: murine STING protein (amino acids 154-378) (Mus musculus (Mouse))
assay-comment: Murine STING [3H] 2′,3′-cGAMP scintillation proximity competition binding assay
experimental-parameters: read-out: Murine Binding IC50
readout-label: IC50

// worked examples, IC50 included
Nc1nc2c(ncn2[C@@H]2O[C@@H]3COP(=O)(S)OCCn4nc(-c5ccncc5)nc4COP(=O)(S)O[C@@H]2[C@@H]3F)c(=O)[nH]1 (single isomer, unassigned) [Example 34C] = < 1000 nM
Nc1nc2c(ncn2[C@@H]2O[C@@H]3COP(=O)(S)OCCn4c(nc5cncnc54)COP(=O)(S)O[C@@H]2[C@@H]3O)c(=O)[nH]1 (single isomer, unassigned) [Example 15C] = < 1000 nM
Nc1nc2c(ncn2[C@@H]2O[C@@H]3COP(=O)(S)OCCn4c(nc5cncnc54)COP(=O)(O)O[C@@H]2[C@@H]3F)c(=O)[nH]1 (single isomer, unassigned) [Example 6B] = < 1000 nM
Nc1nc2c(ncn2[C@@H]2O[C@@H]3COP(=O)(S)OCCn4c(nc5c(=O)[nH]cnc54)COP(=O)(S)O[C@@H]2[C@@H]3F)c(=O)[nH]1 (single isomer, unassigned) [Example 3B] = 1000 to 9990 nM

-- ask I am curious: what IC50 value has been reported for Nc1nc2c(ncn2[C@@H]2O[C@@H]3COP(=O)(S)OCCCn4c(nc5cncnc54)COP(=O)(S)O[C@@H]2[C@@H]3O)c(=O)[nH]1 (some centres unmarked) ?
-- reply 1000 to 9990 nM

-- ask Further, for Nc1nc2c(nnn2[C@@H]2O[C@@H]3COP(=O)(S)OCCn4c(nc5cncnc54)COP(=O)(S)O[C@@H]2[C@@H]3F)c(=O)[nH]1 (single isomer, unassigned) [Example 24B] ?
-- reply 10000 to 100000 nM

-- ask Further, for Nc1nc2c(ncn2[C@@H]2O[C@@H]3COP(=O)(O)OCCn4c(nc5cncnc54)COP(=O)(S)O[C@@H]2[C@@H]3F)c(=O)[nH]1 (single isomer, unassigned) [Example 5A] ?
-- reply < 1000 nM

###

A collection of molecules and their measured IC50
target: AQ variant of truncated human STING protein, amino acids 155-379 (Homo sapiens (Human), UniProt Q86WV6, G230A/H232R/R293Q)
Sequence (Q86WV6 155-379 G230A/H232R/R293Q): as the sequence (Q86WV6 155-379 H232R) above, with G76A, R139Q counted along it
assay-comment: Human AQ STING [3H] 2′,3′-cGAMP scintillation proximity competition binding assay
experimental-parameters: read-out: Human AQ Binding IC50

-- ask I am curious: what IC50 value has been reported for CO[C@H]1[C@H]2OP(=O)(S)OCc3nc4cncnc4n3CCOP(=O)(S)OC[C@H]1O[C@H]2n1cnc2c(=O)[nH]c(N)nc21 (single isomer, unassigned) [Example 27C] ?
-- reply < 1 µM

###

A collection of compounds and their measured pIC50
target: murine STING protein (amino acids 154-378) (Mus musculus (Mouse))
assay-comment: Murine STING [3H] 2′,3′-cGAMP scintillation proximity competition binding assay
experimental-parameters: read-out: Murine Binding IC50
pIC50: −log10 of the molar value.

Nc1nc2c(ncn2[C@@H]2O[C@@H]3COP(=O)(S)OCCn4c(nc5cnccc54)COP(=O)(S)O[C@@H]2[C@@H]3F)c(=O)[nH]1 (single isomer, unassigned) [Example 17C] = > 6.00

-- ask I am curious: what pIC50 value has been reported for Nc1nc2c(ncn2[C@@H]2O[C@@H]3COP(=O)(S)OCCn4c(nc5c(N)ncnc54)COP(=O)(S)O[C@@H]2[C@@H]3F)c(=O)[nH]1 (single isomer, unassigned) [Example 7B] ?
-- reply > 6.00

-- ask Further, for Nc1ncnc2c1ncn2[C@@H]1O[C@@H]2COP(=O)(S)OCCn3c(nc4cncnc43)COP(=O)(S)O[C@@H]1[C@@H]2O (stereo partly shown) ?
-- reply 5.00 to 6.00

###

target: AQ variant of truncated human STING protein, amino acids 155-379 (Homo sapiens (Human), UniProt Q86WV6, G230A/H232R/R293Q)
assay-comment: Human AQ STING [3H] 2′,3′-cGAMP scintillation proximity competition binding assay
experimental-parameters: read-out: Human AQ Binding IC50
readout-label: IC50

Nc1nc2c(ncn2[C@@H]2O[C@@H]3COP(=O)(S)OCCn4c(nc5cncnc54)COP(=O)(S)O[C@@H]2[C@@H]3F)c(=O)[nH]1 (single isomer, unassigned) [Example 1A] = < 1000 nM

-- ask I am curious: what IC50 value has been reported for Nc1nc2c(ncn2[C@@H]2O[C@@H]3COP(=O)(S)OCCn4c(nc5c(N)ncnc54)COP(=O)(S)O[C@@H]2[C@@H]3F)c(=O)[nH]1 (single isomer, unassigned) [Example 7A] ?
-- reply 1000 to 9990 nM

-- ask Further, for CO[C@H]1[C@H]2OP(=O)(S)OCc3nc4cncnc4n3CCOP(=O)(S)OC[C@H]1O[C@H]2n1cnc2c(=O)[nH]c(N)nc21 (single isomer, unassigned) [Example 27D] ?
-- reply < 1000 nM
